target: Guanine nucleotide-binding protein G(o) subunit alpha (Homo sapiens); experiment: RGS4 and Galphao interaction regulators – biochemical, single concentration, multiplexed bead flow cytometry, confirmation (AID 1840); details: at 10 µM, actives lie on both sides
The list shows a part of the results.
parameter-measured: binding response (% of control) (%)
Reply numerically in %, unit not repeated.

// solved cases for binding response (% of control) follow
1) CSc1ccc(CN2C(=O)NC3(CCCCCC3)C2=O)cc1 = 97.1
2) CC(=O)c1ccc(NC(=S)NC(=O)CC(C)C)cc1 = 93.6
3) Fc1cc(F)c2nc(Nc3nc4c(F)cccc4s3)sc2c1 = 103
4) CC(NC(=O)COC(=O)C1CCN(S(=O)(=O)c2ccccc2C(F)(F)F)CC1)c1ccccc1 (stereo unspecified) = 97.2
5) CN(C)CCN=c1cc(-c2ccccc2)oc2ccc(Cl)cc12 = 107

// next entry
Form field: binding response (% of control) recorded for C/C(=C/C(=O)N1CCN(C)CC1)C(=O)O with Guanine nucleotide-binding protein G(o) subunit alpha (Homo sapiens) (enter value)
102
